B1: BBSome complex member BBS2 (Homo sapiens), Q9BXC9 (parent)
chain: MLLPVFTLKLRHKISPRMVAIGRYDGTHPCLAAATQTGKVFIHNPHTRNQHVSASRVFQSPLESDVSLLSINQAVSCLTAGVLNPELGYDALLVGTQTNLLAYDVYNNSDLFYREVADGANAIVLGTLGDISSPLAIIGGNCALQGFNHEGSDLFWTVTGDNVNSLALCDFDGDGKKELLVGSEDFDIRVFKEDEIVAEMTETEIVTSLCPMYGSRFGYALSNGTVGVYDKTSRYWRIKSKNHAMSIHAFDLNSDGVNELITGWSNGKVDARSDRTGEVIFKDNFSSAIAGVVEGDYRMDGHIQLICCSVDGEIRGYLPGTAEMRGNLMDTSAEQDLIRELSQKKQNLLLELRNYEENAKAELASPLNEADGHRGIIPANTRLHTTLSVSLGNETQTAHTELRISTSNDTIIRAVLIFAEGIFTGESHVVHPSIHNLSSSICIPIVPPKDVPVDLHLKAFVGYRSSTQFHVFESTRQLPRFSMYALTSLDPASEPISYVNFTIAERAQRVVVWLGQNFLLPEDTHIQNAPFQVCFTSLRNGGHLHIKIKLSGEITINTDDIDLAGDIIQSMASFFAIEDLQVEADFPVYFEELRKVLVKVDEYHSVHQKLSADMADHSNLIRSLLVGAEDARLMRDMKTMKSRYMELYDLNRDLLNGYKIRCNNHTELLGNLKAVNQAIQRAGRLRVGKPKNQVITACRDAIRSNNINTLFKIMRVGTASS
partner: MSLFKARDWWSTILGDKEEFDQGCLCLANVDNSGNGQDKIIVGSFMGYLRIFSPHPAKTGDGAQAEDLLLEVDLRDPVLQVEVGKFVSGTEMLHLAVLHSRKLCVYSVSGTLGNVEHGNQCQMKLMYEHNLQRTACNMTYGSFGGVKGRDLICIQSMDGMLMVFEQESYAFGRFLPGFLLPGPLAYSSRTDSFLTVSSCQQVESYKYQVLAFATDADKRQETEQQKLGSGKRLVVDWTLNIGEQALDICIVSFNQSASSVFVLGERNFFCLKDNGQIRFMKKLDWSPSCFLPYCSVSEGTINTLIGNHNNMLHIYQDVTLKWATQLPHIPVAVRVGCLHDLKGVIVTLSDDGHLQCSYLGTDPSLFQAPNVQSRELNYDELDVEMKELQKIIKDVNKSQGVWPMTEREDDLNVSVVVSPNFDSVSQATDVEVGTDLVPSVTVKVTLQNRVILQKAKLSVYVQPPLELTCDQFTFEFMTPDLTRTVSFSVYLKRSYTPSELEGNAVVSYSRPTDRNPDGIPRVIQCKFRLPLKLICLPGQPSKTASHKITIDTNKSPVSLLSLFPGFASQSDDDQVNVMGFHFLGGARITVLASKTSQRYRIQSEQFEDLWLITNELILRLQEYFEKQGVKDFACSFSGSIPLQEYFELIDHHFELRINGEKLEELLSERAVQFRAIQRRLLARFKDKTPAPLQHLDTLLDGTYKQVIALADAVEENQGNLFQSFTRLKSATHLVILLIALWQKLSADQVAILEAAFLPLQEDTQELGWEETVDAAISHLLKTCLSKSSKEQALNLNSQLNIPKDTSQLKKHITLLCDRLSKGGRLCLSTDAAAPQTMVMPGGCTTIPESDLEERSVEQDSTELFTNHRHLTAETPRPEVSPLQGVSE

Variants of: B1
Settings: with pthb1_human BBS9, Q3SYG4
Measured metric: effect of a mutation on the interaction

1) R635K	with no effect
2) G392A	with no effect
3) P447E	with no effect
4) T331E	with no effect
5) A576K	with no effect
6) S440A	with no effect
7) N517A	with no effect
8) K689E	with no effect
9) R594K	with no effect
10) I422K	with no effect
11) G462A	with no effect
12) I621K	with no effect
13) P530A	with no effect
14) Q346E	with no effect
15) K360A	with no effect
16) N528E	with no effect
17) T397E	with no effect
18) L337A	with no effect
19) P587A	with no effect
20) Q693A	with no effect
